Origin of measurements: patent US11174268B2

system.tested: UniProt Q9UQD0
procedure.text: Sodium Influx Assay (Flux), NaV1.6
Assay type: cell-based
condition.label: Trex HEK293 cells, ANG2 dye, inactivated state
measured.quantity: IC50 (nM)

| compound | unit.string | val |
| --- | --- | --- |
| COCc1ccc(F)c([C@H](C)Nc2cc(F)c(S(=O)(=O)Nc3cscn3)cc2Cl)c1 [Example 280] | nM | 1390 |
| C[C@H](Nc1cc(F)c(S(=O)(=O)Nc2cscn2)cc1Cl)c1cccc(Cl)c1F [Example 6] | nM | 3380 |
| O=S(=O)(Nc1cscn1)c1cc(Cl)c(NCc2c(F)cccc2CN2CC3(CCC3)C2)cc1F [Example 128] | nM | 208 |

###

system.tested: NaV1.1 (Homo sapiens (Human))
procedure.text: Electrophysiological Assay (EP), patch voltage clamp, NaV1.1;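 also: sodium current block measured at ambient temperature, holding at fully inactivating potential, 20 ms repolarization to −150 mV before test pulse, versus 0.5% DMSO control currents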
Type: cell-based
condition.label: HEK-293 cells, whole-cell patch clamp
pIC50: −log10 of the molar value. Where a name gives a salt, the structure may show the parent alone.
# pIC50 per entry

| compound | pIC50 |
| --- | --- |
| C[C@H](Nc1cc(F)c(S(=O)(=O)Nc2ccncn2)c(F)c1)c1cc(Cl)ccc1F [Example 206, 2,2,2-trifluoroacetate] | 5.00 |
| O=S(=O)(Nc1cscn1)c1c(F)cc(NCc2c(F)cccc2CN2CC3(CCO3)C2)cc1F [Example 156, formate] | 5.00 |
| CC[C@H](Nc1cc(F)c(S(=O)(=O)Nc2nccs2)cc1Cl)c1ccccc1F | 6.94 |
| C[C@H](Nc1cc(F)c(S(=O)(=O)Nc2cscn2)c(F)c1)c1cc(Cl)ccc1F [Example 207, 2,2,2-trifluoroacetate] | 5.09 |
| O=S(=O)(Nc1nccs1)c1cc(Cl)c(O[C@H](c2ccccc2)C(F)(F)F)cc1F | 5.00 |
| O=S(=O)(Nc1nccs1)c1cc(Cl)c(NC2(c3ccccc3F)CCC2)cc1F | 5.06 |

###

system.tested: NaV1.6 (Homo sapiens (Human), UniProt Q9UQD0)
Sequence (Q9UQD0 whole entry, looked up): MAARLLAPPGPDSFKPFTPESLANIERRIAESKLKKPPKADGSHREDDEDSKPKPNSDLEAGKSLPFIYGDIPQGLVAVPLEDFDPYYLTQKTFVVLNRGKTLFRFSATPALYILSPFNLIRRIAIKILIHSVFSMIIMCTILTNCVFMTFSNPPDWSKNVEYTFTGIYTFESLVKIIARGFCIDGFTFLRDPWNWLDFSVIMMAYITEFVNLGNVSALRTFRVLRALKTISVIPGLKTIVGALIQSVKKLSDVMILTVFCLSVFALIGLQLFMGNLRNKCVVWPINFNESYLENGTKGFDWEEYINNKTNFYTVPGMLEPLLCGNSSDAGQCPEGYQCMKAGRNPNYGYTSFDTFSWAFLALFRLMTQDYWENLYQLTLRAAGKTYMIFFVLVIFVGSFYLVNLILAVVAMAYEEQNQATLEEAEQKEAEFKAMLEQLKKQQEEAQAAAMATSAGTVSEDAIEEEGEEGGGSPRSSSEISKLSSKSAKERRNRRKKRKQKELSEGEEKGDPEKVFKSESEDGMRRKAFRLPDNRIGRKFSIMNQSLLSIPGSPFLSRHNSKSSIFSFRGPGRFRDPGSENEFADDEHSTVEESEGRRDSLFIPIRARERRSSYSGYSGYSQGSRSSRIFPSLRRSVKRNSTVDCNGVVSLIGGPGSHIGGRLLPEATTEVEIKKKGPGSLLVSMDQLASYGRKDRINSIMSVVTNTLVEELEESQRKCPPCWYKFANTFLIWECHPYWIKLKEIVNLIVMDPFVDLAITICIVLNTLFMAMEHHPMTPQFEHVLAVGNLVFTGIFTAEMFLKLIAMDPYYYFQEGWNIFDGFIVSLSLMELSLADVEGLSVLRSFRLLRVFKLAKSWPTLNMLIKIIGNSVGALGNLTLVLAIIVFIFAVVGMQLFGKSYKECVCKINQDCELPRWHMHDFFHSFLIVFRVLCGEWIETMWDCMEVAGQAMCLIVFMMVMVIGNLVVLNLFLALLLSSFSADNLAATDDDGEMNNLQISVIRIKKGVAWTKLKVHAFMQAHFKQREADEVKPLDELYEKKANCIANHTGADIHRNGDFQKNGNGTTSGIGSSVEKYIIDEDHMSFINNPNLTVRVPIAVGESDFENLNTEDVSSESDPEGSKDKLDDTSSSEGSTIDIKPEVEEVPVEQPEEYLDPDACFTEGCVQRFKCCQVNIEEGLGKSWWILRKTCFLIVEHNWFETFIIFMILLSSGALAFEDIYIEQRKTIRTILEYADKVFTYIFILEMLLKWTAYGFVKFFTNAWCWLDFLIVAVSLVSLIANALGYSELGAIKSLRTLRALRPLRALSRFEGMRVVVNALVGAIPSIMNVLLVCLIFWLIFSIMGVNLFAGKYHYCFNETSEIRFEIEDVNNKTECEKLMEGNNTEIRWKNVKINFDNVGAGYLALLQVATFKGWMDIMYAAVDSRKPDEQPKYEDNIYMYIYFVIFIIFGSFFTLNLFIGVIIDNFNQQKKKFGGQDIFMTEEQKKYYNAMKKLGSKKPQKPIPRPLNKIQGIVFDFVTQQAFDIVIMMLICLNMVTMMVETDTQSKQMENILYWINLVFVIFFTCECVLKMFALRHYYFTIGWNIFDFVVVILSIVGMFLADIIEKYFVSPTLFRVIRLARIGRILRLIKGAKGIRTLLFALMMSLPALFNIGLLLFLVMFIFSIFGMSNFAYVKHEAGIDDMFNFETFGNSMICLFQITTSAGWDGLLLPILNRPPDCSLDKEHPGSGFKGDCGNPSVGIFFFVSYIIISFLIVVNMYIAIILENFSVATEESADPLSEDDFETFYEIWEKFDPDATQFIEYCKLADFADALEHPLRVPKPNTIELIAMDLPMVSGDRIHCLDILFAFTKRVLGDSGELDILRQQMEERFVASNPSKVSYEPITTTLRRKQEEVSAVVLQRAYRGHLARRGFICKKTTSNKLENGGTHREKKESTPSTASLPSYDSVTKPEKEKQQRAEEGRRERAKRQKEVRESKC
Sequence (Q07699 whole entry partner, looked up): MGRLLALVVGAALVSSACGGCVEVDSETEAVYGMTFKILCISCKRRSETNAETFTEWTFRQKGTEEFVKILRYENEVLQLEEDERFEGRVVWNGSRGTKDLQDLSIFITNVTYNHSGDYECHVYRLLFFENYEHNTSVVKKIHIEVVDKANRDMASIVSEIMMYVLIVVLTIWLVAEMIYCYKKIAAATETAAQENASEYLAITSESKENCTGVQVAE
procedure.text: Sodium Influx Assay (Flux), NaV1.6;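 also: Tetracycline-induced cells, compounds applied for one hour at room temperature with modulators holding channels open, IC50 from percent inhibition of sodium influx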
Assay type: cell-based
condition.label: Trex HEK293 cells, ANG2 dye, inactivated state

| item.smiles | IC50 |
| --- | --- |
| C[C@H](Nc1cc(F)c(S(=O)(=O)Nc2nccs2)cc1Cl)c1cc(Cl)cc(Cl)c1 | 10.8 µM |
| C[C@H](Nc1cc(F)c(S(=O)(=O)Nc2nccs2)cc1Cl)c1ccc(F)c(F)c1 | 0.741 µM |
| C[C@H](Nc1cc(F)c(S(=O)(=O)Nc2cnccn2)cc1Cl)c1cc(Cl)ccc1F | 8.68 µM |

###

system.tested: NaV1.6 (Homo sapiens (Human))
procedure.text: Sodium Influx Assay (Flux), NaV1.6
Type: cell-based
condition.label: Trex HEK293 cells, ANG2 dye, inactivated state
Counter-ions that a name gives are not always drawn.

| compound | system.tested | unit.string | IC50 |
| --- | --- | --- | --- |
| O=S(=O)(Nc1cscn1)c1cc(Cl)c(N[C@H](CN2CCCC2)c2ccccc2)cc1F | NaV1.6 (Homo sapiens (Human)) | nM | 3870 |
| Cc1cc(S(=O)(=O)Nc2cscn2)c(F)cc1NCc1c(F)cccc1CN1CC(F)C1 | NaV1.6 (Homo sapiens (Human)) | nM | 588 |
| O=S(=O)(Nc1cscn1)c1c(F)cc(NCc2c(F)cccc2CN2CC3CC3C2)cc1F (stereo not shown) | NaV1.6 (Homo sapiens (Human)) | nM | 35 |
| C[C@H](Nc1ccc(S(=O)(=O)Nc2nccs2)cc1Cl)c1ccccc1F | NaV1.6 (Homo sapiens (Human)) | nM | 237 |
| C[C@H](Nc1ccc(S(=O)(=O)Nc2cscn2)cc1C#N)c1ccccc1F | NaV1.6 (Homo sapiens (Human)) | nM | 1650 |
| O=S(=O)(Nc1ccsn1)c1c(F)cc(NCc2c(F)cccc2CN2CCC2)cc1F [Example 188, 2,2,2-trifluoroacetate] | NaV1.6 (Homo sapiens (Human)) | nM | 25 |
| O=S(=O)(Nc1cscn1)c1cc(Cl)c(NCc2c(F)ccc(F)c2CN2CCC2)cc1F [Example 288, hydrochloride] | NaV1.6 (Homo sapiens (Human)) | nM | 180 |
| O=S(=O)(Nc1cscn1)c1cc(Cl)c(NCc2c(F)ccc3cc[nH]c23)cc1F | NaV1.6 (Homo sapiens (Human)) | nM | 785 |
| CN1CCN(Cc2cccc(F)c2CNc2cc(F)c(S(=O)(=O)Nc3cscn3)c(F)c2)CC1 [Example 151, formate] | NaV1.6 (Homo sapiens (Human)) | nM | 2100 |
| CC1(C)CN(Cc2cccc(F)c2CNc2cc(F)c(S(=O)(=O)Nc3cscn3)c(F)c2)C1 | NaV1.6 (Homo sapiens (Human)) | nM | 176 |
